- target_under_test: PDE 4 (cytosolic fraction from human polymorphonuclear lymphocytes (PMNLs))
- assay_procedure: Inhibition of phosphodiesterase 4 (SPA assay, [3H]-cAMP substrate)
- cond: enzyme preparation from human PMNLs; 0.5 μM [3H]-cAMP; 37° C., 30 minutes
readout_label: pIC50
Give only the number. pIC50 is defined as minus log10 of concentration in molar units.

Provide value of pIC50 for this record tested with PDE 4 (cytosolic fraction from human polymorphonuclear lymphocytes (PMNLs)): O=C(Nc1c(Cl)cncc1Cl)C(=O)c1cn(Cc2cccc([N+](=O)[O-])c2)c2c(O)cccc12
8.70

Provide value of pIC50 for this record tested with PDE 4 (cytosolic fraction from human polymorphonuclear lymphocytes (PMNLs)): O=C(Nc1c(Cl)cncc1Cl)C(=O)c1cn(Cc2ccc(Cl)cc2)c2c(O)cccc12
8.70

Provide value of pIC50 for this record tested with PDE 4 (cytosolic fraction from human polymorphonuclear lymphocytes (PMNLs)): O=C(Nc1c(Cl)cncc1Cl)C(=O)c1cn(Cc2ccc(F)cc2)c2c(O)cccc12
7.82

Provide value of pIC50 for this record tested with PDE 4 (cytosolic fraction from human polymorphonuclear lymphocytes (PMNLs)): O=C(Nc1c(Cl)cncc1Cl)C(=O)c1cn(Cc2ccc(F)cc2)c2cccc(O)c12
6.03

Provide value of pIC50 for this record tested with PDE 4 (cytosolic fraction from human polymorphonuclear lymphocytes (PMNLs)): CC(C)Cn1cc(C(=O)C(=O)Nc2c(Cl)cncc2Cl)c2cccc(O)c21
7.70

Provide value of pIC50 for this record tested with PDE 4 (cytosolic fraction from human polymorphonuclear lymphocytes (PMNLs)): O=C(Nc1c(Cl)cncc1Cl)C(=O)c1cn(Cc2c(F)cccc2F)c2c(O)cccc12
8.70

Provide value of pIC50 for this record tested with PDE 4 (cytosolic fraction from human polymorphonuclear lymphocytes (PMNLs)): O=C(Nc1c(Cl)cncc1Cl)C(=O)c1cn(CC2CC2)c2c(O)cccc12
7.52

Provide value of pIC50 for this record tested with PDE 4 (cytosolic fraction from human polymorphonuclear lymphocytes (PMNLs)): O=C(Nc1c(Cl)cncc1Cl)C(=O)c1cn(Cc2ccc(O)cc2)c2c(O)cccc12
8.52

Provide value of pIC50 for this record tested with PDE 4 (cytosolic fraction from human polymorphonuclear lymphocytes (PMNLs)): O=C(Nc1c(Cl)cncc1Cl)C(=O)c1cn(Cc2ccccc2F)c2c(O)cccc12
9.00

Provide value of pIC50 for this record tested with PDE 4 (cytosolic fraction from human polymorphonuclear lymphocytes (PMNLs)): O=C(Nc1c(Cl)cccc1Cl)C(=O)c1cn(Cc2ccc(F)cc2)c2c(O)cccc12
6.85
